# System: Hepatotoxicity
# Assay Summary: FDA HLAED, serum glutamic pyruvic transaminase (SGPT) increase
# Run Conditions: human
Measured Parameter: SGPT Increase - Number of Reports

Please review the following examples before continuing.
1. CC(C)NCC(O)c1ccc(NS(C)(=O)=O)cc1 (stereo not drawn): < 4
2. Cc1cn([C@H]2C=C[C@@H](CO)O2)c(=O)[nH]c1=O: >= 4
3. CC(C)NCC(O)COc1ccc(CCOCC2CC2)cc1 (stereo not drawn): < 4
4. CN(C)CC/C=C1/c2ccccc2COc2ccc(CC(=O)O)cc21: < 4
5. CCOC(=O)c1cncn1[C@H](C)c1ccccc1 [ETOMIDATE]: < 4
6. NCCC(O)(P(=O)(O)O)P(=O)(O)O: < 4

Q: Which SGPT Increase - Number of Reports reading was recorded for the compound C[C@@]12CCCCC[C@@H](Cc3ccc(O)cc31)[C@@H]2N ?
Ans: < 4

Q: Repeat for the following compound: CN(C/C=C/c1ccccc1)Cc1cccc2ccccc12
Ans: < 4

Q: Repeat for the following compound: CO[C@]12CC[C@@]3(C[C@@H]1[C@](C)(O)C(C)(C)C)[C@H]1Cc4ccc(O)c5c4[C@@]3(CCN1CC1CC1)[C@H]2O5
Ans: < 4

Q: Repeat for the following compound: C[C@]12CC[C@@H]3c4ccc(O)cc4CC[C@H]3[C@@H]1CC[C@@H]2O
Ans: >= 4

Q: Repeat for the following compound: Oc1ccc2c(c1)[C@@]13CCCC[C@@]1(O)[C@@H](C2)N(CC1CCC1)CC3
Ans: < 4

Q: Repeat for the following compound: O=C1CN=C(c2ccccc2)c2cc(Cl)ccc2N1CC1CC1
Ans: < 4

Q: Repeat for the following compound: CC(=O)O[C@H]1C(=O)[C@@]2(C)[C@H]([C@H](OC(=O)c3ccccc3)[C@]3(O)C[C@H](OC(=O)[C@H](O)[C@@H](NC(=O)c4ccccc4)c4ccccc4)C(C)=C1C3(C)C)[C@]1(OC(C)=O)CO[C@@H]1C[C@@H]2O
Ans: < 4

Q: Repeat for the following compound: CCCc1c2oc(C(=O)O)cc(=O)c2cc2c(=O)cc(C(=O)O)n(CC)c12
Ans: < 4

---

# Tested on: Hepatotoxicity
# Assay Summary: FDA HLAED, serum glutamic oxaloacetic transaminase (SGOT) increase
# Run Conditions: human
Measured Parameter: SGOT Increase - Activity Score

Please review the following examples before continuing.
1. CNCCC(Oc1ccc(C(F)(F)F)cc1)c1ccccc1 (configuration not stated) [FLUOXETINE]: Active
2. O=C1NC(c2ccccc2)(c2ccccc2)C(=O)N1COP(=O)(O)O [FOSPHENYTOIN]: Inactive
3. COc1cc(N)c(Cl)cc1C(=O)NC1CCN(CCCOc2ccc(F)cc2)CC1OC (configuration not stated) [CISAPRIDE]: Inactive
4. CC1(C)NC(=O)N(c2ccc([N+](=O)[O-])c(C(F)(F)F)c2)C1=O [NILUTAMIDE]: Inactive
5. CO[C@@]1(NC(=O)C2SC(=C(C(N)=O)C(=O)O)S2)C(=O)N2C(C(=O)O)=C(CSc3nnnn3C)CS[C@@H]21 (some centres not stated) [CEFOTETAN]: Inactive
6. COc1cc([C@@H]2c3cc4c(cc3[C@@H](O[C@@H]3O[C@@H]5CO[C@@H](c6cccs6)O[C@H]5[C@H](O)[C@H]3O)[C@H]3COC(=O)[C@H]23)OCO4)cc(OC)c1O [TENIPOSIDE]: Inactive

Q: Short answer please: SGOT Increase - Activity Score, Hepatotoxicity, entry CC(O)(CS(=O)(=O)c1ccc(F)cc1)C(=O)Nc1ccc(C#N)c(C(F)(F)F)c1 (configuration not stated) [BICALUTAMIDE]
Ans: Active

---

# System: Hepatotoxicity
# Assay Summary: FDA HLAED, alkaline phosphatase increase
# Run Conditions: human
Measured Parameter: Alkaline Phosphatase Increase - Number of Reports

Please review the following examples before continuing.
1. C=C1CC[C@@]2(O)[C@H]3Cc4ccc(O)c5c4[C@@]2(CCN3CC2CC2)[C@H]1O5: < 4
2. CC1(C)S[C@@H]2[C@H](NC(=O)[C@H](N)c3ccc(O)cc3)C(=O)N2[C@H]1C(=O)O: < 4
3. NC1=NC(=O)C(c2ccccc2)O1 (stereo not given): >= 4
4. CC(=O)OCC(=O)[C@@]12OC3(CCCC3)O[C@@H]1C[C@H]1[C@@H]3CCC4=CC(=O)C=C[C@]4(C)[C@@]3(F)[C@@H](O)C[C@@]12C [AMCINONIDE]: < 4

Q: Which Alkaline Phosphatase Increase - Number of Reports reading was recorded for the compound O=P1(NCCCl)OCCCN1CCCl (stereo not given) [IFOSFAMIDE] ?
Ans: < 4

---

# Tested on: Hepatotoxicity
# Assay Summary: FDA HLAED, serum glutamic pyruvic transaminase (SGPT) increase
# Run Conditions: human
Examples of compounds with documented SGPT Increase - Index Value follow.

Please review the following examples before continuing.
1. CC1(C)NC(=O)N(c2ccc([N+](=O)[O-])c(C(F)(F)F)c2)C1=O [NILUTAMIDE]: 19.5
2. O=c1[nH]c2ccccc2n1C1CCN(CCCC(c2ccc(F)cc2)c2ccc(F)cc2)CC1 [PIMOZIDE]: 17.6
3. COc1ccc(OC)c(C(O)CNC(=O)CN)c1 (centres undefined) [MIDODRINE]: 0
4. CC(=O)N[C@@H](CS)C(=O)O [ACETYLCYSTEINE]: 4.8

Q: Short answer please: SGPT Increase - Index Value, Hepatotoxicity, entry CCc1cccc2c3c([nH]c12)C(CC)(CC(=O)O)OCC3 (centres undefined) [ETODOLAC]
Ans: 1.4

Q: Repeat for the following compound: CC(C)/N=c1\cc2n(-c3ccc(Cl)cc3)c3ccccc3nc-2cc1Nc1ccc(Cl)cc1 [CLOFAZIMINE]
Ans: 102.6

Q: Repeat for the following compound: CC[C@H]1OC(=O)[C@H](C)[C@@H](O[C@H]2C[C@@](C)(OC)[C@@H](O)[C@H](C)O2)[C@H](C)[C@@H](O[C@@H]2O[C@H](C)C[C@H](N(C)C)[C@H]2O)[C@](C)(O)C[C@@H](C)[C@@H]2N[C@@H](COCCOC)O[C@H]([C@H]2C)[C@]1(C)O [DIRITHROMYCIN]
Ans: 5.4

Q: Repeat for the following compound: CC(C)c1cccc(C(C)C)c1O [PROPOFOL]
Ans: 0.5

Q: Repeat for the following compound: COc1ccc2cc([C@H](C)C(=O)O)ccc2c1 [NAPROXEN]
Ans: 0

Q: Repeat for the following compound: O=C(O)CCc1nc(-c2ccccc2)c(-c2ccccc2)o1 [OXAPROZIN]
Ans: 0.8

Q: Repeat for the following compound: Cc1cccc(Nc2ccccc2C(=O)O)c1C [MEFENAMIC ACID]
Ans: 19.5

Q: Repeat for the following compound: Cc1ccc(-c2nc3ccc(C)cn3c2CC(=O)N(C)C)cc1 [ZOLPIDEM]
Ans: 3.9

---

# System: Hepatotoxicity
# Assay Summary: FDA HLAED, serum glutamic pyruvic transaminase (SGPT) increase
# Run Conditions: human
Measured Parameter: SGPT Increase - Number of Reports

1. CC(C)NCC(O)COc1ccc(COCCOC(C)C)cc1 (centres undefined): < 4
2. Cn1nnnc1SCC1=C(C(=O)[O-])N2C(=O)[C@@H](NC(=O)[C@H](OC=O)c3ccccc3)[C@H]2SC1.[Na+] [CEFAMANDOLE NAFATE]: < 4
3. COc1c(C)c2c(c(O)c1C/C=C(\C)CCC(=O)O)C(=O)OC2: >= 4
4. C#C[C@]1(O)CC[C@H]2[C@@H]3CCC4=Cc5oncc5C[C@]4(C)[C@H]3CC[C@@]21C: >= 4

---

Examples of molecules with documented SGOT Increase - Index Value follow.
# Tested on: Hepatotoxicity
# Assay Summary: FDA HLAED, serum glutamic oxaloacetic transaminase (SGOT) increase
# Run Conditions: human
Write no unit; give the number alone.

Q: Which SGOT Increase - Index Value reading was recorded for the molecule NCCCC[C@H](N[C@@H](CCc1ccccc1)C(=O)O)C(=O)N1CCC[C@H]1C(=O)O [LISINOPRIL ANHYDROUS] ?
Ans: 1.5

---

# Tested on: Hepatotoxicity
# Assay Summary: FDA HLAED, gamma-glutamyl transferase (GGT) increase
# Run Conditions: human
Examples of compounds with documented GGT Increase - Number of Reports follow.

Please review the following examples before continuing.
1) Clc1ccc2nsnc2c1NC1=NCCN1 [TIZANIDINE]: < 4
2) CCCC1O[C@@H]2C[C@H]3[C@@H]4CCC5=CC(=O)C=C[C@]5(C)[C@H]4[C@@H](O)C[C@]3(C)[C@]2(C(=O)CO)O1 (some centres undefined) [BUDESONIDE]: < 4
3) CC1(C)O[C@@H]2[C@@H](CO[C@@]3(COS(N)(=O)=O)OC(C)(C)O[C@@H]23)O1 [TOPIRAMATE]: < 4

Next, consider the following compound.
Q: Which GGT Increase - Number of Reports reading was recorded for the compound Cc1ccccc1N1CCN(CCc2nnc3n2CCCC3)CC1 [DAPIPRAZOLE] ?
Ans: < 4
